- System: Pseudomonas aeruginosa
- Assay Details: Potentiation of imipenem-induced antibacterial activity against carbapenem-resistant Pseudomonas aeruginosa 88949 clinical isolate assessed as imipenem MIC at 8 uM by checkerboard assay (reference value: 64 ug/ml)
- Type: functional
Parameter Measured: MIC

Sample answers from the record:
# Mol Smiles, Measured Result
measured = [
    ("Cl.Cl.Cl.Cl.Cl.NC[C@H]1O[C@H](O[C@H]2[C@H](OCCCCCCCCCCCCN3CCN(c4cc5c(cc4F)c(=O)c(C(=O)O)cn5C4CC4)CC3)[C@@H](O)[C@H](N)C[C@@H]2N)[C@H](N)C[C@@H]1O", "64 µg/mL"),
    ("NC[C@H]1O[C@H](O[C@H]2[C@H](OCCCCCCCCN3CCCNCCNCCCNCC3)[C@@H](O[C@H]3O[C@H](CO)[C@@H](O)[C@H](N)[C@H]3O)[C@H](N)C[C@@H]2N)[C@H](N)C[C@@H]1O.O=C(O)C(F)(F)F.O=C(O)C(F)(F)F.O=C(O)C(F)(F)F.O=C(O)C(F)(F)F.O=C(O)C(F)(F)F.O=C(O)C(F)(F)F.O=C(O)C(F)(F)F.O=C(O)C(F)(F)F.O=C(O)C(F)(F)F", "32 µg/mL"),
]

# next compound below
# get_value(readout='MIC', item= `NC[C@H]1O[C@H](O[C@H]2[C@H](OCCCCc3cn(CCCCO[C@@H]4[C@@H](O)[C@H](N)C[C@H](N)[C@H]4O[C@H]4O[C@H](CN)[C@@H](O)C[C@H]4N)nn3)[C@@H](O)[C@H](N)C[C@@H]2N)[C@H](N)C[C@@H]1O.O=C(O)C(F)(F)F.O=C(O)C(F)(F)F.O=C(O)C(F)(F)F.O=C(O)C(F)(F)F.O=C(O)C(F)(F)F.O=C(O)C(F)(F)F.O=C(O)C(F)(F)F.O=C(O)C(F)(F)F` )
32 µg/mL

----------
- System: Pseudomonas aeruginosa
- Assay Details: Potentiation of imipenem-induced antibacterial activity against carbapenem-resistant Pseudomonas aeruginosa 108590 clinical isolate assessed as fold reduction in imipenem MIC at 8 uM in presence of beta-lactamase inhibitor, rele-bactam
- Assay type: functional
Reported fold change (FC) by item:
Simply state the number, no unit and no words.

The following compounds have reported results that may help.
# Mol Smiles, Measured Result
measured = [
    ("NC[C@H]1O[C@H](O[C@H]2[C@H](OCCCCc3cn(CCCCO[C@@H]4[C@@H](O)[C@H](N)C[C@H](N)[C@H]4O[C@H]4O[C@H](CN)[C@@H](O)C[C@H]4N)nn3)[C@@H](O)[C@H](N)C[C@@H]2N)[C@H](N)C[C@@H]1O.O=C(O)C(F)(F)F.O=C(O)C(F)(F)F.O=C(O)C(F)(F)F.O=C(O)C(F)(F)F.O=C(O)C(F)(F)F.O=C(O)C(F)(F)F.O=C(O)C(F)(F)F.O=C(O)C(F)(F)F", 16),
    ("Cl.Cl.Cl.Cl.Cl.Cl.NC[C@H]1O[C@H](O[C@H]2[C@H](OCCCCCCCCCCCCN3CCN(c4cc5c(cc4F)c(=O)c(C(=O)O)cn5C4CC4)CC3)[C@@H](O[C@H]3O[C@H](CO)[C@@H](O)[C@H](N)[C@H]3O)[C@H](N)C[C@@H]2N)[C@H](N)C[C@@H]1O", 16),
]

Query fold change (FC) on Pseudomonas aeruginosa for `N=C(N)NC[C@H]1O[C@H](O[C@H]2[C@H](OCCCCCCCCCCCCN3CCN(c4cc5c(cc4F)c(=O)c(C(=O)O)cn5C4CC4)CC3)[C@@H](O[C@H]3O[C@H](CO)[C@@H](O)[C@H](NC(=N)N)[C@H]3O)[C@H](NC(=N)N)C[C@@H]2NC(=N)N)[C@H](NC(=N)N)C[C@@H]1O.O=C(O)C(F)(F)F.O=C(O)C(F)(F)F.O=C(O)C(F)(F)F.O=C(O)C(F)(F)F.O=C(O)C(F)(F)F.O=C(O)C(F)(F)F`
16
